# ASSAYED SYSTEM: hCB1 (Homo sapiens)
# ASSAY METHOD TEXT: bioSensAll ebBRET signaling profiling, hCB1
# Type: cell-based
# Design: host or cells: HEK293SL cells, transient PEI transfection
# SETTINGS: read-out: EC50 [95% CI]; hCB1 G15
Measured EC50, listed per entry for reference.
State the value, then name its unit.

COMPOUND	REPORTED METRIC	REPORTED MEASUREMENT
COC(=O)[C@@](C)(NC(=O)c1cc(C)n(-c2cccc(C(F)(F)F)c2)n1)c1cccs1	EC50	220 pM

// next item, EC50 requested
Reported EC50 for COC(=O)C(C)(NC(=O)c1cc(C)n(-c2cccc(C(F)(F)F)c2)n1)c1cccs1 (centres unmarked) was 370 pM

###

Measured EC50, listed per entry for reference.
# ASSAYED SYSTEM: hCB1 (Homo sapiens, UniProt P21554)
# Sequence (P21554 whole entry): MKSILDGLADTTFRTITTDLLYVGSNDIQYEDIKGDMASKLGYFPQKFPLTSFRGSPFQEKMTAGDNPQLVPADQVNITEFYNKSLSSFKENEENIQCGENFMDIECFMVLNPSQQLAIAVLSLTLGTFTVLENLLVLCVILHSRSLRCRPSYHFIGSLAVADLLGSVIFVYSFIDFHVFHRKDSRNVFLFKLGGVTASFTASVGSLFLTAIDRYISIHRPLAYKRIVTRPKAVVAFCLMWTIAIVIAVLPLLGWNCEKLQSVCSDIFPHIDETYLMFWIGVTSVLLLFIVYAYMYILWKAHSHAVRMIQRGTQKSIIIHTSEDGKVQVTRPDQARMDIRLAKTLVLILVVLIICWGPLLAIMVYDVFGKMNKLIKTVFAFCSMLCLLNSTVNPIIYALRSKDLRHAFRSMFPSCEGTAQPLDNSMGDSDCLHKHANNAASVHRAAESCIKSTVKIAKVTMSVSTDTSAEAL
# ASSAY METHOD TEXT: bioSensAll ebBRET signaling profiling, hCB1
# Assay type: cell-based
# Set-up: host or cells: HEK293SL cells, transient PEI transfection
# SETTINGS: read-out: EC50 [95% CI]; hCB1 GoB
Unit µM implied. Number only.

Examples with answers:
COMPOUND	ASSAYED SYSTEM	EC50 [µM]
Cc1cc(C(=O)NC(c2ccccc2)c2ccco2)nn1-c1cccc(C#N)c1 (stereo not shown) [‘12565]	hCB1 (Homo sapiens, UniProt P21554)	0.0448
Cn1nc(-c2nnc(C(C)(C)Oc3ccc(C(F)(F)F)cc3)o2)c2ccccc2c1=O [‘2153]	hCB1 (Homo sapiens, UniProt P21554)	2.06
COC(=O)C(NC(=O)c1cc(C)n(-c2cccc(C(F)(F)F)c2)n1)c1cccs1 (stereo not shown) [‘60154]	hCB1 (Homo sapiens, UniProt P21554)	0.0184

// next item, EC50 requested
Reported EC50 for COC(=O)[C@@H]1[C@@H]2CC[C@@H]2CN1C(=O)c1cc(C)n(-c2cccc(C(F)(F)F)c2)n1 [‘6448] was 0.31

###

# ASSAYED SYSTEM: hCB1 (Homo sapiens)
# ASSAY METHOD TEXT: bioSensAll ebBRET signaling profiling, hCB1
# Format: cell-based
# Design: host or cells: HEK293SL cells, transient PEI transfection
# SETTINGS: Log [Compound] (M) -5.47381; single replicate values, FigS6a
Measured GoB hCB1, listed per entry for reference.
Output spec: single numeric token, no unit.

Examples with answers:
COMPOUND	GoB hCB1
Cc1cc(C(=O)N2CC3(CCC3)[C@@H]2[C@H]2CCCO2)nn1-c1cccc(C(F)(F)F)c1 (single isomer, unassigned) [compound 430]	1.896
COC(=O)[C@@H]1[C@@H]2CC[C@@H]2CN1C(=O)c1cc(C)n(-c2cccc(C(F)(F)F)c2)n1 [‘6448]	88.7014
Cc1cc(C(=O)N2CC3(CCC3)[C@@H]2[C@@H]2CCCO2)nn1-c1cccc(C(F)(F)F)c1 [‘3386]	-3.409
Cc1cc(C(=O)N2CC3(CCC3)[C@H]2[C@H]2CCCO2)nn1-c1cccc(C(F)(F)F)c1 [‘1651]	47.4476
COc1cccc(C(NC(=O)c2cc(C)n(-c3cccc(C(F)(F)F)c3)n2)c2ccco2)c1 (stereo not drawn) [‘1087]	-9.02

Item Cc1cc(C(=O)N(C)C(c2ccco2)c2ccco2)nn1-c1cccc(C(F)(F)F)c1 [‘4388] was tested on hCB1 (Homo sapiens); the reported GoB hCB1 is -26.6258

Item Cc1cc(C(=O)NC(c2ccccc2)c2ccco2)nn1-c1cccc(C(F)(F)F)c1 (stereo not drawn) [‘1081] was tested on hCB1 (Homo sapiens); the reported GoB hCB1 is 38.8336

Item Cc1cc(C(=O)N(C)C(c2ccccc2)c2ccco2)nn1-c1cccc(C(F)(F)F)c1 (stereo not drawn) [‘1082] was tested on hCB1 (Homo sapiens); the reported GoB hCB1 is -23.1191

Item Cc1c(C(=O)OCC2CSc3ccccc3O2)cnn1Cc1ccccc1 (stereo not drawn) [‘7800] was tested on hCB1 (Homo sapiens); the reported GoB hCB1 is 14.5949

Item Cc1cc(C(=O)NC(c2ccco2)c2ccco2)nn1-c1cccc(C(F)(F)F)c1 [‘1090] was tested on hCB1 (Homo sapiens); the reported GoB hCB1 is 85.1767

Item CC(=O)C(c1cccs1)N(C)C(=O)c1cc(C)n(-c2cccc(C(F)(F)F)c2)n1 (stereo not drawn) [‘6829] was tested on hCB1 (Homo sapiens); the reported GoB hCB1 is 37.2331

Item Cn1nc(-c2nnc(C(C)(C)Oc3ccc(C(F)(F)F)cc3)o2)c2ccccc2c1=O [‘2153] was tested on hCB1 (Homo sapiens); the reported GoB hCB1 is 51.6096

Item Cc1cc(C(=O)NC(c2ccccc2)c2ccco2)nn1-c1cccc(C#N)c1 (stereo not drawn) [‘12565] was tested on hCB1 (Homo sapiens); the reported GoB hCB1 is 28.2953

Item COC(=O)C(NC(=O)c1cc(C)n(-c2cccc(F)c2)n1)c1cccs1 (stereo not drawn) [‘51486] was tested on hCB1 (Homo sapiens); the reported GoB hCB1 is 63.2909

Item Cc1nn(Cc2ccc(Cl)cc2)c(C)c1C(=O)OCC1CSc2ccccc2O1 (stereo not drawn) [‘5463] was tested on hCB1 (Homo sapiens); the reported GoB hCB1 is 11.0879

Item Brc1cc2c(cc1Cc1noc(-c3cnn(CC4CC4)c3)n1)OCO2 [‘5424] was tested on hCB1 (Homo sapiens); the reported GoB hCB1 is -15.4926

Item COC(=O)[C@@H]1[C@@H]2CCC[C@@H]2CN1C(=O)c1cc(C)n(-c2cccc(Cl)c2)n1 (racemic) [‘10010] was tested on hCB1 (Homo sapiens); the reported GoB hCB1 is 61.9062

Item Cc1cc(C(=O)N2CC3(CCC3)[C@H]2[C@@H]2CCCO2)nn1-c1cccc(C(F)(F)F)c1 [‘5490] was tested on hCB1 (Homo sapiens); the reported GoB hCB1 is 52.9325
